Every entry's value here was drawn from ChEMBL document CHEMBL4507308.

- study.system: 5-hydroxytryptamine receptor 2B (Homo sapiens, UniProt P41595)
- Sequence (P41595 whole entry): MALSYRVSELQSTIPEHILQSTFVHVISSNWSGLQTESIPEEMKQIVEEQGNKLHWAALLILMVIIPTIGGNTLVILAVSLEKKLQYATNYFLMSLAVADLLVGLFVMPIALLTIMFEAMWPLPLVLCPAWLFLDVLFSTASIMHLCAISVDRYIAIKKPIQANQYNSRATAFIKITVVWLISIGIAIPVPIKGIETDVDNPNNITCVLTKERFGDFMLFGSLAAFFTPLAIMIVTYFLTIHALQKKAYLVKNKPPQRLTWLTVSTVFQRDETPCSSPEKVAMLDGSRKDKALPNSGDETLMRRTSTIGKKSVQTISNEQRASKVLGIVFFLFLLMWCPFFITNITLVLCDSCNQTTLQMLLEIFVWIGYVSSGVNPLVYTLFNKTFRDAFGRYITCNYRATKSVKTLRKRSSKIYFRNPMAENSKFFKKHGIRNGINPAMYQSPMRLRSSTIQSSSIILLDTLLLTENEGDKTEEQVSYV
- protocol.text: GPCRScan assay: inhibition of 5-HT2B
- Parameters: radioligand conc. used [nm] 1.0 – 2.0, parental cells stable HEK
- test.parameters: read-out: Ki
attribute.measured: Ki (nM)
Please give a number only; it is taken to be in nM.

**Query** Query: Ki; subject: Cc1cnc(-c2cc(Cl)ccc2F)cc1-n1c(=O)n(CC(N)=O)c2ccccc21
**Result** 1590

**Query** Field entry: Cc1cnc(-c2cc(Cl)ccc2F)cc1-n1c(=O)n(CC(N)=O)c2cnccc21
**Result** 1880

###

- study.system: GABA-A receptor; anion channel
- protocol.text: GPCRScan assay: inhibition of GABAA/BZP
attribute.measured: pKi
By convention, pKi is the negative base-10 log of a molar concentration.

**Query** Query: pKi; subject: Cc1cnc(-c2cc(Cl)ccc2F)cc1-n1c(=O)n(CC(N)=O)c2ccccc21
**Result** 5.56
